Test system: MS2 coat protein
Experiment: apparent KD of MS2 coat protein; designed switch direction (-1 OFF switch, 1 ON switch): -1; higher = weaker reporter binding
Conditions: input ligand: FMN 200 uM
What apparent KD of MS2 coat protein was measured for each of the following?
Your answer should be a plain number; it is taken to be in nM.

Q: Tell me the measured apparent KD of MS2 coat protein of AGCCUAGCAGGAUAUGCCCGGGAUAACAUGAGGAUCACCCAUGUGACCGAUUGAUGUCUUGCAGAAGGGCUAGGGA [JL-EX5-4.02 ViennaUCT mod] (Eterna round: R97, puzzle: Exclusion 5) , please.
Result: 58.4

Q: Subsequent entry: GUACUGAAGCAUAGCUUUAGUCGUACAUGAGGAUCACCCAUGUAGGAUAUGGUAGGCUUUGCUUACUAGAAGGAUAGAGUGAUC [Mat - Exclusion NG 3 - Mod of JL - D71] (Eterna round: R96, puzzle: Exclusion NG 3)
Result: 157

Q: Subsequent entry: UUCCUCUCUUCUUUGUCUCACAUGAGGAUCACCCAUGUAACAUAGGAUAUGCUUGGUAUUUAUAUGCAGAAGGAUGUUAGUAUU [JR_ExcNG3_Sub083] (Eterna round: R96, puzzle: Exclusion NG 3)
Result: 60.8

Q: Subsequent entry: AUAAUGUCAGGAUAUCAGUCGUACAGCCUCGGCUGUACGACUGAGAAGGGACAUGAGGAUCACCCAUGUGGUUA [E4/7-A2] (Eterna round: R97, puzzle: Exclusion 4)
Result: 34.2

Q: Subsequent entry: CCGUAACAUGAGGAUCACCCAUGUCAGGAUAUUCCAAAAUCGUCGAAAGACGAUAACAGAAGAAGGGACAACGG [Fiskxlusion 2 - Jieux - Exclusion 1] (Eterna round: R97, puzzle: Exclusion 1)
Result: 47.6

meta.source: the supplement of paper PMC9170038
